These records show IC50 for Cyclin-dependent kinase 9 (Homo sapiens, UniProt P50750).
Just the number in µM, nothing appended.

Solved cases (5 shown):
CC(C)C1CNC(=O)c2cc(-c3ccnc(N)n3)[nH]c21 (stereo in doubt; 87-1) : 0.031
Nc1nccc(-c2cc3c([nH]2)[C@@H](CCF)CNC3=O)n1 : 0.028
Nc1nccc(-c2cc3c([nH]2)C(CCC(F)(F)F)CNC3=O)n1 (stereo in doubt; 93-2) : 0.395
CC(C)C1CNC(=O)c2cc(-c3ccnc(N)n3)[nH]c21 (stereo in doubt; 87-2) : 0.073
Nc1nccc(-c2cc3c([nH]2)CCNC3=O)n1 : 0.029

Now turn to the next compound.
Missing value: IC50, Cyclin-dependent kinase 9 (Homo sapiens, UniProt P50750), entry Nc1nccc(-c2cc3c([nH]2)C(C2CCC2)CNC3=O)n1 (stereo in doubt; 88-2) . Fill in? 0.096
